- EXPERIMENTAL SYSTEM: glycolate oxidase (GOX) in HepaRG-CAR cells (Homo sapiens (Human), UniProt Q9UJM8)
- Sequence (Q9UJM8 whole entry): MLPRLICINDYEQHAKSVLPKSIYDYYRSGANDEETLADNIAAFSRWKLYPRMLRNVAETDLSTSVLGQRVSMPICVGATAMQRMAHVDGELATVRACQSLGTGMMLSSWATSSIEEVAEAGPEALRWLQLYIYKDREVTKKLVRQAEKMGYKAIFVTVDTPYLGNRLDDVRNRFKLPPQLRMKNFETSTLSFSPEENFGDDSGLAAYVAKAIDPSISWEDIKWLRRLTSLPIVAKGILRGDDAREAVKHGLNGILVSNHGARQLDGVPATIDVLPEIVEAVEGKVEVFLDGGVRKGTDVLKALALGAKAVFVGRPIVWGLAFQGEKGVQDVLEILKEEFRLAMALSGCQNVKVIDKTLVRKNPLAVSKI
- METHOD NOTES: HepaRG-CAR cell-based assay for quantitation of glycolate oxidase inhibition (cellular glycolate flux, GC-MS)
- TEST CONTEXT: HepaRG-CAR cells, 500 μM glycolate, 48 hours incubation; read-out: IC50
pIC50: −log10 of the molar value.
ENDPOINT LABEL: pIC50

INSERT INTO assay_data (line_notation, experimental_system, endpoint_label, result_number) VALUES
  ('O=C(O)c1nn[nH]c1Oc1cccc(-c2ccncc2)c1', 'glycolate oxidase (GOX) in HepaRG-CAR cells (Homo sapiens (Human), UniProt Q9UJM8)', 'pIC50', 5.60),
  ('O=C(O)c1nn[nH]c1Oc1ccc(-c2ccc(F)cc2)cc1', 'glycolate oxidase (GOX) in HepaRG-CAR cells (Homo sapiens (Human), UniProt Q9UJM8)', 'pIC50', 5.60),
  ('O=C(O)c1nn[nH]c1Oc1cccc(-c2ccccc2)c1', 'glycolate oxidase (GOX) in HepaRG-CAR cells (Homo sapiens (Human), UniProt Q9UJM8)', 'pIC50', 5.70),
  ('Cc1cc(Oc2[nH]nnc2C(=O)O)ccc1Br', 'glycolate oxidase (GOX) in HepaRG-CAR cells (Homo sapiens (Human), UniProt Q9UJM8)', 'pIC50', 6.40),
  ('O=C(O)c1nn[nH]c1Oc1cccc(-c2cccc(Cl)c2)c1', 'glycolate oxidase (GOX) in HepaRG-CAR cells (Homo sapiens (Human), UniProt Q9UJM8)', 'pIC50', 5.60),
  ('Cc1cc(Oc2[nH]nnc2C(=O)O)ccc1Cl', 'glycolate oxidase (GOX) in HepaRG-CAR cells (Homo sapiens (Human), UniProt Q9UJM8)', 'pIC50', 6.52),
  ('O=C(O)c1nn[nH]c1Oc1cccc(-c2ccccc2F)c1', 'glycolate oxidase (GOX) in HepaRG-CAR cells (Homo sapiens (Human), UniProt Q9UJM8)', 'pIC50', 5.60),
  ('Cc1ccc(-c2cccc(Oc3[nH]nnc3C(=O)O)c2)cc1', 'glycolate oxidase (GOX) in HepaRG-CAR cells (Homo sapiens (Human), UniProt Q9UJM8)', 'pIC50', 5.60);

---

- METHOD NOTES: Solubility in aqueous solution (deionized, distilled water)
- Assay type: physicochemical
- TEST CONTEXT: kinetic from dmso stock, 1% DMSO, read-out: Aqueous Solubility H2O
- Procedure: For testing compound solubility in phosphate buffered saline (PBS), compound stock solutions were prepared at 10 mM in 100% DMSO. For testing in aqueous solution, the phosphate buffer was replaced with deionized, distilled water. Eleven grams Na2HPO4 (FW: 141.96 g/mol) and 3.5 g NaH2PO4.2H2O (FW: 156.03 g/mol) was added to 1 L Milli-Q water and adjusted to a pH to 7.4 with phosphoric acid or sodium hydroxide. For incubation, media were preheated to 37° C. […]
ENDPOINT LABEL: solubility at 1 h (µM)

INSERT INTO results (line_notation, endpoint_label, result_number) VALUES
  ('N#Cc1cccc(-c2ccc(Oc3[nH]nnc3C(=O)O)cc2)c1', 'solubility at 1 h', 86.9),
  ('O=C(O)c1nn[nH]c1Oc1ccc(C2CCC2)cc1', 'solubility at 1 h', 110),
  ('O=C(O)c1nn[nH]c1Oc1cccc(-c2cccnc2)c1', 'solubility at 1 h', 96.1),
  ('O=C(O)c1nn[nH]c1Oc1ccc(C2CC2)cc1', 'solubility at 1 h', 108),
  ('O=C(O)c1nn[nH]c1Oc1cccc(-c2ccc(Cl)cc2)c1', 'solubility at 1 h', 98),
  ('COc1cccc(-c2ccc(Oc3[nH]nnc3C(=O)O)cc2)c1', 'solubility at 1 h', 101),
  ('O=C(O)c1nn[nH]c1Oc1ccc(C2CCCC2)cc1', 'solubility at 1 h', 100),
  ('COc1ccc(-c2cccc(Oc3[nH]nnc3C(=O)O)c2)cc1', 'solubility at 1 h', 99.4),
  ('O=C(O)c1[nH]nnc1Oc1ccc(Cl)c(Cl)c1', 'solubility at 1 h', 102),
  ('O=C(O)c1[nH]nnc1Oc1ccc(C2CCCCC2)cc1', 'solubility at 1 h', 108),
  ('O=C(O)c1nn[nH]c1Sc1ccc2ccccc2c1', 'solubility at 1 h', 110),
  ('O=C(O)c1nn[nH]c1Sc1ccc(Cl)cc1', 'solubility at 1 h', 83.8),
  ('O=C(O)c1nn[nH]c1Oc1cccc(-c2ccncc2)c1', 'solubility at 1 h', 94.4),
  ('O=C(O)c1nn[nH]c1Oc1ccc2ccccc2c1', 'solubility at 1 h', 81.5),
  ('CCC(CC)c1cccc(Oc2[nH]nnc2C(=O)O)c1', 'solubility at 1 h', 103),
  ('O=C(O)c1nn[nH]c1Sc1ccc(-c2ccccc2)cc1', 'solubility at 1 h', 106),
  ('CC(C)=Cc1cccc(Oc2[nH]nnc2C(=O)O)c1', 'solubility at 1 h', 95.8),
  ('O=C(O)c1nn[nH]c1Oc1cncc(-c2ccccc2)c1', 'solubility at 1 h', 94.2),
  ('O=C(O)c1nn[nH]c1Oc1ccc(-c2ccc(Br)cc2)cc1', 'solubility at 1 h', 29.1),
  ('O=C(O)c1nn[nH]c1Oc1cccc(-c2ccc3ccccc3c2)c1', 'solubility at 1 h', 83.4);

These data points were gathered from patent US11389456B2.
